Target chain: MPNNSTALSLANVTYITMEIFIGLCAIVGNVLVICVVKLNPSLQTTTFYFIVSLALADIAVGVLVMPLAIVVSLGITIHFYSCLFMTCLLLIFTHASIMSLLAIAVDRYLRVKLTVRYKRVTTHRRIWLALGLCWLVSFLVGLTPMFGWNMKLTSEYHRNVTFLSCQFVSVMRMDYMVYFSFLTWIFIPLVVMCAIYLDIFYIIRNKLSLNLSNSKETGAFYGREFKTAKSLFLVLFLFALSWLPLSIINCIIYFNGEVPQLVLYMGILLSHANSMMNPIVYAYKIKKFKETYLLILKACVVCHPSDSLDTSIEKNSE
Metric Name: Ki (nM)
Reply with just the number (in nM).

Take a look at these entries with their results.
CCCn1c(=O)c2[nH]c(-c3cnn(Cc4noc(-c5ccccc5)n4)c3)nc2n(CCC)c1=O = 630
CCCn1c(=O)c2[nH]c(-c3cnn(CC(=O)Nc4ccccc4Cl)c3)nc2n(CCC)c1=O = 1200

For the next question, use this compound.
Which Ki value is on record for `CCCn1c(=O)c2nc(-c3cnn(Cc4nc(-c5ccccc5Cl)no4)c3)[nH]c2n(CCC)c1=O` ?
490

====

Sequence of the target: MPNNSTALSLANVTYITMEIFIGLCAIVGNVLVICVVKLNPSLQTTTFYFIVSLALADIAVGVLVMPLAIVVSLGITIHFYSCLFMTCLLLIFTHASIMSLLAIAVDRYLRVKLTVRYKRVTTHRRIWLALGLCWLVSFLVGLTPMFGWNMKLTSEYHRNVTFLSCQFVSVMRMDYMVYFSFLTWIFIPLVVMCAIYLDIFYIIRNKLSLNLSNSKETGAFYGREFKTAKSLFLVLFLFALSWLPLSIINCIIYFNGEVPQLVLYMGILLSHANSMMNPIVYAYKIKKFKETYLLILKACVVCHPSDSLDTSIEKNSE
pKi: −log10 of the molar value.
Classification field: 1 = pKi at or over 6; 0 = pKi under 6.

For orientation, consider the following solved cases.
CCCn1c(=O)c2nc(-c3cnn(Cc4nc(-c5ccccc5C(F)(F)F)no4)c3)[nH]c2n(CCC)c1=O = 1
CCCn1c(=O)c2[nH]c(-c3cnn(Cc4noc(-c5ccccc5Cl)n4)c3)nc2n(CCC)c1=O = 1
CCCn1c(=O)c2nc(-c3cnn(Cc4noc(-c5ccc(OC)cc5)n4)c3)[nH]c2n(CCC)c1=O = 0

Check this molecule for pKi at or above 6: `CCCn1c(=O)c2[nH]c(-c3cnn(Cc4nc(-c5cccc(Cl)c5)no4)c3)nc2n(CCC)c1=O`
1

Please give the result for `CCCn1c(=O)c2nc(-c3cnn(Cc4noc(-c5ccc(Cl)cc5)n4)c3)[nH]c2n(CCC)c1=O` too.
0

Please give the result for `CCCn1c(=O)c2nc(-c3cnn(Cc4nc(-c5ccc(Cl)cc5)no4)c3)[nH]c2n(CCC)c1=O` too.
1

Please give the result for `CCCn1c(=O)c2[nH]c(-c3cnn(Cc4cc(-c5ccc(Cl)cc5)on4)c3)nc2n(CCC)c1=O` too.
0

====

Target protein (sequence): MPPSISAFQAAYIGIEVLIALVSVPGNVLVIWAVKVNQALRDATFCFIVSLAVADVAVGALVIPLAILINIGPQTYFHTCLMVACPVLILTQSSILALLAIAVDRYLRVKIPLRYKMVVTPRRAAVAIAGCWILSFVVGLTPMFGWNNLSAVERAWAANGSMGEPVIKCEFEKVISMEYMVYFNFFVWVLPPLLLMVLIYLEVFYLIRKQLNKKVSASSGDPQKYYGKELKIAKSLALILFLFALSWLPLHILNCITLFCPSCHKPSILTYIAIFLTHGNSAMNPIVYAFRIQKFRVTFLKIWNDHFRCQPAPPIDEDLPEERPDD
pKi: −log10 of the molar value.
Classification field: Y = pKi at or over 6; N = pKi under 6.

For orientation, consider the following solved cases.
CCCn1c(=O)c2[nH]c(-c3cnn(Cc4cc(-c5ccc(Cl)cc5)on4)c3)nc2n(CCC)c1=O = Y
CCCn1c(=O)c2[nH]c(-c3cnn(Cc4cc(-c5ccc(C(F)(F)F)cc5)on4)c3)nc2n(CCC)c1=O = N
CCCn1c(=O)c2[nH]c(-c3cnn(Cc4noc(-c5ccccc5C(F)(F)F)n4)c3)nc2n(CCC)c1=O = N
CCCn1c(=O)c2[nH]c(-c3cnn(Cc4cc(-c5ccc(OC)cc5)on4)c3)nc2n(CCC)c1=O = N
CCCn1c(=O)c2nc(-c3cnn(Cc4noc(-c5ccc(Cl)cc5)n4)c3)[nH]c2n(CCC)c1=O = N
CCCn1c(=O)c2[nH]c(-c3cnn(Cc4nc(-c5ccccc5OC)no4)c3)nc2n(CCC)c1=O = N

Check this compound for pKi at or above 6: `CCCn1c(=O)c2nc(-c3cnn(Cc4nc(-c5ccccc5C(F)(F)F)no4)c3)[nH]c2n(CCC)c1=O`
Y

Please give the result for `CCCn1c(=O)c2[nH]c(-c3cnn(Cc4cc(-c5ccccc5Cl)on4)c3)nc2n(CCC)c1=O` too.
N

====

Target sequence: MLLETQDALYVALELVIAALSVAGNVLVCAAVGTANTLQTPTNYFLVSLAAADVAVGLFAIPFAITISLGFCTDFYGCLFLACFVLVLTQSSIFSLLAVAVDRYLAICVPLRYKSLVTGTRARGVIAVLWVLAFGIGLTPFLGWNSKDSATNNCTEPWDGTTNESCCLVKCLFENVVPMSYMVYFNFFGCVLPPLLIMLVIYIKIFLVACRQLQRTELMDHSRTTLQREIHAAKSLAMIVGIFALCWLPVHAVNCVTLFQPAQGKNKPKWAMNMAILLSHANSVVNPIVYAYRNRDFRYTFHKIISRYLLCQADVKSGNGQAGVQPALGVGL
Measured pKi, listed per entry for reference.
pKi field: float, defined as -log10 of concentration (mol/L).

Take a look at these entries with their results.
CCCn1c(=O)c2[nH]c(-c3cnn(Cc4cc(-c5ccccc5OC)on4)c3)nc2n(CCC)c1=O = 6.71
CCCn1c(=O)c2[nH]c(-c3cnn(Cc4noc(-c5cccc(OC)c5)n4)c3)nc2n(CCC)c1=O = 6.87

Which pKi value is on record for `CCCn1c(=O)c2[nH]c(-c3cnn(Cc4cc(-c5ccccc5Cl)on4)c3)nc2n(CCC)c1=O` ?
6.95

Please give the result for `CCCn1c(=O)c2nc(-c3cnn(Cc4noc(-c5cccc(Cl)c5)n4)c3)[nH]c2n(CCC)c1=O` too.
6.87

====

target: Adenosine receptors; A1 & A2b (Homo sapiens) (UniProt P30542+P29275); assay: Selectivity of adenosine A1 receptor over adenosine A2B receptor; type: protein assay
Metric Name: Ratio Ki
Answer as a number with no unit attached.

Which Ratio Ki value is on record for `CCCn1c(=O)c2nc(-c3cnn(Cc4cc(-c5ccc(C(F)(F)F)cc5)on4)c3)[nH]c2n(CCC)c1=O` ?
48

Please give the result for `CCCn1c(=O)c2[nH]c(-c3cnn(Cc4noc(-c5ccccc5)n4)c3)nc2n(CCC)c1=O` too.
47

Please give the result for `CCCn1c(=O)c2nc(-c3cnn(Cc4cc(-c5ccccc5OC)on4)c3)[nH]c2n(CCC)c1=O` too.
16

Please give the result for `CCCn1c(=O)c2nc(-c3cnn(Cc4cc(-c5cccc(Cl)c5)on4)c3)[nH]c2n(CCC)c1=O` too.
28

====

Target chain: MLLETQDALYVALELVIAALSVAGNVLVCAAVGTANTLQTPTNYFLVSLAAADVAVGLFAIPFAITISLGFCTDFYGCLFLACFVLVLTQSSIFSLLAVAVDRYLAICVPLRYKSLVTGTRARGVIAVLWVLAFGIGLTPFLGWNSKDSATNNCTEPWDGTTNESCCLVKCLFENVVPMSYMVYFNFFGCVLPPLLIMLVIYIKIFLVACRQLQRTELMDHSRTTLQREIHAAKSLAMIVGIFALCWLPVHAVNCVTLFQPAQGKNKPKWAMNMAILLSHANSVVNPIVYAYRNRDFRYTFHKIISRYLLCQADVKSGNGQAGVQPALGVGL
Metric Name: Ki (nM)
Reply with just the number (in nM).

Take a look at these entries with their results.
CCCn1c(=O)c2[nH]c(-c3cnn(Cc4nc(-c5cccc(C)c5)no4)c3)nc2n(CCC)c1=O = 128
CCCn1c(=O)c2[nH]c(-c3cnn(Cc4cc(-c5ccc(OC)cc5)on4)c3)nc2n(CCC)c1=O = 63
CCCn1c(=O)c2nc(-c3cnn(Cc4nc(-c5cccc(C(F)(F)F)c5)no4)c3)[nH]c2n(CCC)c1=O = 42
CCCn1c(=O)c2[nH]c(-c3cnn(Cc4nc(-c5ccccc5OC)no4)c3)nc2n(CCC)c1=O = 82
CCCn1c(=O)c2[nH]c(-c3cnn(Cc4nc(-c5ccc(C(F)(F)F)cc5)no4)c3)nc2n(CCC)c1=O = 55

Which Ki value is on record for `CCCn1c(=O)c2nc(-c3cnn(Cc4nc(-c5ccccc5Cl)no4)c3)[nH]c2n(CCC)c1=O` ?
19
